tested on: OVCAR-4 ovarian; test: NCI-60 one-dose screen, 48 h; settings: 10 µM unless noted
The panel holds about 83,000 compounds, 20% with a hit somewhere; the sample as a whole holds those more often. Active and inactive are the calls of the source. How the source made its calls: active means growth percent below 10; inactive means the rest.
Select the matching outcome among active, inactive

Take a look at these entries with their results.
# Cpd smiles, Class label
data = [
    ("O=C([C@H]1C[C@H]1c1ccc(S(F)(F)(F)(F)F)cc1)N1CCN(c2cc(Cl)ccc2C(F)(F)F)CC1", "inactive"),
    ("CNC(=O)c1cc(Oc2ccc3nc(NC(=O)Nc4ccc(C(F)(F)F)cc4)sc3c2)ccn1", "inactive"),
    ("Cc1c(C(=O)OCCCCOC(=O)c2c(C)n(C)c3scc[n+]23)[n+]2ccsc2n1C", "inactive"),
    ("COc1ccc(S(=O)(=O)Nc2cc(Sc3cccc4cccnc34)c(O)c3ccccc23)cc1", "active"),
]

Here is the next item to consider.
Look up the recorded call for `COc1ccc(Cl)cc1Nc1nc(C(F)(F)F)ccc1C(=O)N/N=C/c1ccc(N(C)C)cc1` in this test.
inactive
